Consider the following compounds; for each one, report its EC50.
Test system: FADD-deficient variant of human Jurkat T cells
Experiment: TNF-α induced necroptosis inhibition, ATP-based viability assessment
Format: cell-based
Conditions: Jurkat; 10 ng/mL human TNF-α, 24 hours, CellTiter-Glo viability
Numbers only, in µM.

Some compounds with known EC50 results, for comparison:
Q) Name the recorded EC50 for `COc1ccc(F)cc1Cn1cnc2sc3c(c2c1=O)CCC3` .
A) 10.9

Q) Also COc1ccc(C2CC(=O)NC(SCC(=O)Nc3nccs3)=C2C#N)cc1OC (centres unmarked) , if possible.
A) 0.354

Q) Also `COc1ccc(Cn2cnc3sc4c(c3c2=O)CCC4)cc1F` , if possible.
A) 3.05

Q) Also O=C(CSc1nc2ccccc2s1)N1N=CCC1c1ccccc1 (centres unmarked) , if possible.
A) 1.56

Q) Also N#CC1=C(SCC(=O)Nc2nccs2)NC(=O)CC1c1ccc(Cl)cc1 (centres unmarked) , if possible.
A) 0.823

List the reported EC50 of each compound below.
1. Cc1ccc(Cn2ncc3ccccc32)cc1
2. O=C1NC(Cc2c[nH]c3ccccc23)C(=O)N1Cc1ccc(Cl)cc1 (centres unmarked)
3. O=C(NCc1cccs1)C1CCCCC1

A)
3.62
0.343
7.72
